Each recorded value in this set is attributed to paper PMC9603561.

- test: MTT cytotoxicity assay
- Format: cell-based
- run.parameters: African green monkey; Vero E6 cells, MTT, 24 h treatment; read-out: Cytotoxicity Concentration (CC50)
value.type: CC50 at 24 h

Reported CC50 at 24 h of "[H]/N=C(/N)c1ccc(NCc2nc3cc(C(=O)N(CCC(=O)O)c4ccccn4)ccc3n2C)cc1" : 142 µM

###

- system.tested: SARS-CoV-2 M^pro enzyme (Severe acute respiratory syndrome coronavirus 2, UniProt P0DTD1)
- Construct: The 3CL Protease Assay Kit was used; purchased
- test: SARS-CoV-2 M^pro inhibitory assay (3CL Protease Assay Kit)
- Format: biochemical
- run.parameters: fluorogenic substrate, triplicate
Kindly supply the reported pIC50 values for the records listed here.
Numbers only, as −log10 of the molar value.

Sample "[H]/N=C(/N)c1ccc(NCc2nc3cc(C(=O)N(CCC(=O)O)c4ccccn4)ccc3n2C)cc1" , system: SARS-CoV-2 M^pro enzyme (Severe acute respiratory syndrome coronavirus 2, UniProt P0DTD1). Its pIC50 is 4.98

Sample CO[C@H]1O[C@H](COS(=O)(=O)O)[C@@H](O[C@@H]2O[C@@H](C(=O)O)[C@@H](O[C@H]3O[C@H](COS(=O)(=O)O)[C@@H](O[C@@H]4O[C@H](C(=O)O)[C@@H](O[C@H]5O[C@H](COS(=O)(=O)O)[C@@H](O)[C@H](O)[C@H]5NS(=O)(=O)O)[C@H](O)[C@H]4O)[C@H](OS(=O)(=O)O)[C@H]3NS(=O)(=O)O)[C@H](O)[C@H]2OS(=O)(=O)O)[C@H](O)[C@H]1NS(=O)(=O)O [Fondaparinux sodium, fondaparinux sodium] , system: SARS-CoV-2 M^pro enzyme (Severe acute respiratory syndrome coronavirus 2, UniProt P0DTD1). Its pIC50 is 5.63

Sample "CCC[C@@]1(CCc2ccccc2)CC(O)=C([C@H](CC)c2cccc(NS(=O)(=O)c3ccc(C(F)(F)F)cn3)c2)C(=O)O1" , system: SARS-CoV-2 M^pro enzyme (Severe acute respiratory syndrome coronavirus 2, UniProt P0DTD1). Its pIC50 is 5.13

Continuing:
Sample "CCCSc1nc(N[C@@H]2C[C@H]2c2ccc(F)c(F)c2)c2nnn([C@@H]3C[C@H](OCCO)[C@@H](O)[C@H]3O)c2n1" , system: SARS-CoV-2 M^pro enzyme (Severe acute respiratory syndrome coronavirus 2, UniProt P0DTD1). Its pIC50 is 4.32
